Origin of the recorded values: the OPERA property sets (Mansouri et al. 2018)

MEASUREMENT_TYPE: melting point (°C)
Give just the number in °C; leave the unit off.

Consider the following illustrative entries.
COMPOUND	MEASUREMENT_TYPE	RECORDED_VALUE
CC(C)OC(=O)COc1cc(Cl)c(Cl)cc1Cl	melting point	45
NC(=O)CBr	melting point	89
CCN(CC)CCOc1ccc2nc(N(C)C)sc2c1.Cl.Cl	melting point	242
CCC1(C)CCCC1	melting point	-144
Cc1ccc2ccc(=O)oc2c1	melting point	128
O=C(O)c1cccc2cccnc12	melting point	187
Clc1cc(Cl)c(Cl)nc1Cl	melting point	90.5
COC(=O)c1cccc(Br)c1	melting point	32
CC(CCc1ccccc1)NC(C)C(O)c1cc(I)c(O)c(I)c1 (centres undefined)	melting point	212
Cc1cccc2cc[nH]c12	melting point	85

Request: Name the reported melting point value associated with the compound NC(=O)OCCCc1ccccc1
Response: 102

Request: Name the reported melting point value associated with the compound CCC(Cl)CC
Response: -105

Request: Name the reported melting point value associated with the compound CCCCCC(C)Br (centres undefined)
Response: 47

Request: Name the reported melting point value associated with the compound CCCCCCCCCCCC
Response: -9.6

Request: Name the reported melting point value associated with the compound Cc1ccc2cc3c(ccc4ccccc43)cc2c1
Response: 152

Request: Name the reported melting point value associated with the compound ClCc1ccccc1CCl
Response: 55
